Cited source: PubChem BioAssay AID1259343

- ASSAY DETAILS: Mycobacterium tuberculosis growth inhibition, primary screen (AID 1259343)
- TEST PARAMETERS: at 10 µM, hits give high values
Out of some 6,200 compounds screened, about 2,900 (47%) were called active. So high a share suggests a set chosen from earlier hits. The list shows a part of the results.
Recorded inhibition, one value per entry.

COMPOUND	ATTRIBUTE MEASURED	RESULT
CN1N=C(CC(=O)Nc2ccc(-n3nccc3C(F)(F)F)cc2)CC1=O	inhibition	87.8% (active)
O=C(CCc1nnc(Cc2ccc(-c3ccccc3)cc2)o1)NCCc1ccccn1	inhibition	50.7% (active)
CC1CC1C(=O)Nc1ccc(-n2nccc2C(F)(F)F)cc1 (stereo not given)	inhibition	40% (inactive)

Would you kindly share the measured inhibition for NC(=O)CSc1ccc(-c2cccc(CN3CCOCC3)c2)cc1 ?
54.4% (active)

Another compound to look at: Cc1cn2nc(NC3CCc4ccccc43)sc2n1 (stereo not given)
41.4% (inactive)

Another compound to look at: CCn1cnnc1CN(C)c1ccc(-c2nc(-c3ccccc3F)no2)cn1
7.76% (inactive)

Another compound to look at: CN(Cc1ccc(Cl)cc1)c1ccc2c(C3CC3)noc2n1
41.3% (inactive)

Another compound to look at: O=C(O)c1ccc(Oc2cccc(Br)c2)cc1
91.5% (active)

Another compound to look at: Ic1ccc(OCCN2CCc3ccccc3C2)cc1
46.5% (inactive)

Another compound to look at: O=C1C=C2C(=CCOC2O)O1 (stereo not given)
98.2% (active)

Another compound to look at: COc1ccc(Br)cc1C=Cc1ccc2cccc(O)c2n1
17.6% (inactive)

Another compound to look at: O=C(O)c1ccc(Oc2cc(Cl)ccc2Cl)cc1
45.5% (inactive)

Another compound to look at: OCc1cc(-c2cc3ccccc3o2)on1
8.03% (inactive)

Another compound to look at: O=S(=O)(NC1CCCc2ccccc21)c1ccc(Br)cc1 (stereo not given)
10.2% (inactive)

###

- ASSAY DETAILS: Mycobacterium tuberculosis growth inhibition, primary screen (AID 1259343)
- TEST PARAMETERS: at 10 µM, hits give high values
Out of some 6,200 compounds screened, about 2,900 (47%) were called active. So high a share suggests a set chosen from earlier hits. The list shows a part of the results.
Recorded inhibition, one value per entry.
Response body: numeric value in %, unit text excluded.

Use the examples below as a reference point.
MOLECULE	NUMERIC READOUT
Cc1ccc(/C=C2\CNC/C(=C\c3ccc(C)cc3)C2=O)cc1	27.8
COc1c(Br)cc(Cl)cc1S(=O)(=O)NCCc1ccccc1	18
CC1CCN(S(=O)(=O)NC(C)c2ccc(F)cc2)CC1 (centres undefined)	17.4
Cc1[nH]nc(Nc2ccc(Cl)c(Cl)c2)c1[N+](=O)[O-]	70.3
COc1cccc(Nc2nc(C(N)C3CCCCC3)cs2)n1 (centres undefined)	86.2
Cc1ccc(CC2CC(=O)N(C3CCCCC3)C2=O)cc1 (centres undefined)	36.3
COc1ccc(-c2csc(NC3CCCC3)n2)c(OC)c1	16.6
CN(Cc1nc2c(s1)CCCC2)C(=O)Cc1ccccc1O	82.4
FC(F)(F)c1ccc2c(c1)Oc1sc(Cl)cc1NC2=S	92
Cc1cnc(NC(=O)C2=C(O)c3ccccc3S(=O)(=O)N2C)s1	34.9

Would you kindly share the measured inhibition for CCCc1nc(C(=O)N2CCOC(c3ccc(Cl)cc3)C2)cs1 (centres undefined) ?
28.4

Another molecule to look at: Oc1c(Cl)cc(Cl)cc1C1=NNC(c2ccccc2F)C1 (centres undefined)
38.9

Another molecule to look at: Cc1cnc(NC(=O)c2cccc(OC(F)F)c2)s1
-11.7

Another molecule to look at: CCOC(=O)C(CC)Sc1nnc(NC(=O)c2ccc(Br)cc2)s1 (centres undefined)
91.5
